# protocol summary: HPLC lipophilicity (log kW, standardized to log PEXP)
# Format: physicochemical
# run conditions: LiChrospher RP8 HPLC column (125 × 4.0 mm, 5 µm), HPLC.RP8/ACN
Quick reference: chromatographic logP of the listed items.
Just the number, please, no unit attached.

{"structure notation": "CCOc1ccc(Cc2cc([C@@H]3O[C@H](SC)[C@@H](O)[C@H](O)[C@H]3O)ccc2Cl)cc1", "chromatographic logP": 3.28}

// chromatographic logP value for CCOc1ccc(Cc2cc([C@@H]3O[C@H](CO)[C@@H](O)[C@H](O)[C@H]3O)ccc2Cl)cc1 : 2.11

// chromatographic logP value for CCOc1ccc(Cc2cc([C@]34OC[C@](CO)(O3)[C@@H](O)[C@H](O)[C@H]4O)ccc2Cl)cc1 : 2.4
